Values compiled from patent US11584775B2.

- measuredOn: human RORγ (Homo sapiens, UniProt P51449)
- Sequence (P51449 269-508 limits assumed): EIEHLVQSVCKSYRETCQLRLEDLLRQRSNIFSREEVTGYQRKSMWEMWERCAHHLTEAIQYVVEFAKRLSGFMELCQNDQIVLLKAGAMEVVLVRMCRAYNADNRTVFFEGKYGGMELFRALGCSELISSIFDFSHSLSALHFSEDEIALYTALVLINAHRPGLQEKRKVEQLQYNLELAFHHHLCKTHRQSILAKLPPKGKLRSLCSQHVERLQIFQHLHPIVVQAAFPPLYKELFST
- procedureDetails: RORγ assay (GAL4-RORγ hybrid luciferase reporter, inverse-agonist activity)
- statedConditions: GAL4-RORγ hybrid reporter cells, 23 hours
Provide the reported pIC50 of each item.
Answers are plain numbers, as −log10 of the molar value.

Example entries and their recorded answers appear below.
| compound | pIC50 |
| --- | --- |
| CNC(=O)[C@]1(C)C(=O)C(C#N)=C[C@]2(C)C3=CC(=O)[C@]45OC(=O)[C@@]6(CCC(C)(C)C[C@H]64)CC[C@@]5(C)[C@]3(C)CC[C@@H]12 | 6.38 |
| COC(=O)[C@]12CCC(C)(C)C[C@H]1[C@H]1C(=O)C=C3[C@@]4(C)C=C(C#N)C(=O)C[C@@H]4CC[C@@]3(C)[C@]1(C)CC2 | 6.84 |

Respectfully, I request pIC50 for each entry included below.
1. Cc1noc([C@]23CCC(C)(C)C[C@H]2[C@H]2C(=O)C=C4[C@@]5(C)C=C(C#N)C(=O)C(C)(C)[C@@H]5CC[C@@]4(C)[C@]2(C)CC3)n1 [Comparison Compound #9, reference compound]
2. COC(=O)N[C@]12CCC(C)(C)C[C@H]1[C@H]1C(=O)C=C3[C@@]4(C)C=C(C#N)C(=O)C(C)(C)[C@@H]4CC[C@@]3(C)[C@]1(C)CC2 [Comparison Compound #7, reference compound]
3. C[C@@H]1C(=O)C(C#N)=C[C@]2(C)C3=CC(=O)[C@@H]4[C@@H]5CC(C)(C)CC[C@]5(NC(=O)C(C)(F)F)CC[C@@]4(C)[C@]3(C)CC[C@@H]12 [Comparison Compound #4, reference compound]
4. CC1(C)CC[C@@]23CC[C@@]4(C)[C@]5(C)CC[C@@H]6[C@@](C)(C5=CC(=O)[C@]4(OC2=O)[C@@H]3C1)[C@H]1O[C@@]1(C#N)C(=O)[C@@]6(C)O

Result:
1: 6.75; 2: 6.43; 3: 6.75; 4: 5.98
